- Tested System: human PD-1 (NM_005018.2) over-expressed on cells (human, UniProt Q15116 25-288)
- Sequence (Q15116 25-288): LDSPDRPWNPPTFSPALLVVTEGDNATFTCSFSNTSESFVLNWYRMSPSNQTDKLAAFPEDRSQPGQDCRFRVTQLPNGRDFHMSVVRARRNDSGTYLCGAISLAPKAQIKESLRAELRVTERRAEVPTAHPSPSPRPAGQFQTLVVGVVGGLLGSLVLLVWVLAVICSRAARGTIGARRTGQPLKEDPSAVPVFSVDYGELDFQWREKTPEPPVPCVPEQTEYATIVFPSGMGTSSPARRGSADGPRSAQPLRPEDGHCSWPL
- Assay Name: cell-based or functional assay
Test Readout: EC50 (nM)
Response body: numeric value in nM, unit text excluded.

Guide cases for EC50, answers given:
PD1-49A2(A/2A6) (antibody, V domains shown, scFv-phage in the screening ELISA; whole IgG in the other assays; also called 49A2-2A6; PD1 49A2 2A6) VH: QVQLVESGGGVVQPGRSLRLSCAASGFTFKYYAMHWVRQAPGKGLEWVTVISYDGQYKYYADSVKGRFTISRDNSKNTLYLQMNSLRAEDTAVYYCTTTTFDSWGQGTLVTVSS VL: DIVMTQTPLSLPVTPGEAASISCRSSQSLLDSEDGNTYLDWYLQRPGQSPQLLIYTLSHRASGVPGRFSGSGSGTEFNLRISRVEAEDVGIYYCMQRVEFPFTFGQGTKVEIK :: 1.67
PD1-49A2(A/2B9) (antibody, V domains shown, scFv-phage in the screening ELISA; whole IgG in the other assays; also called 49A2-2B9; 49A2 (2B9)) VH: QVQLVESGGGVVQPGRSLRLSCAASGFTFLRYAMHWVRQAPGKGLEWVAVISYDGRYKYYADSVKGRFTISRDNSKNTLYLQMNSLRAEDTAVYYCTTTTFDSWGQGTLVTVSS VL: DIVMTQTPLSLPVTPGEAASISCRSSQSLLDSEDGNTYLDWYLQKPGQSPQLLIYTLSHRASGVPDRFSGSGSGTDFTLEISRVEAEDVGVYYCMQRRDFPFTFGQGTKVDIK :: 0.689
PD1-45D6(A/3D2) (antibody, V domains shown, scFv-phage in the screening ELISA; whole IgG in the other assays; also called 45D6-3D2; PD1 45D6 3D2) VH: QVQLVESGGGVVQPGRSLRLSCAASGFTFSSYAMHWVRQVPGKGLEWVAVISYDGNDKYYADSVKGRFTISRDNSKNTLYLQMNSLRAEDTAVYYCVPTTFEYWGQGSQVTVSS VL: DIVMTQTPLSLPVTPGEAASISCRSSQSLLDSEDGNTYLDWYLQKPGQSPQLLIYTLSHRASGVPDRFSGSGSGTDFTLKISRVEAEDVGIYYCMQRVEFPFTFGQGTKVEIK :: 2
PD1-45D6(A/3H7) (antibody, V domains shown, scFv-phage in the screening ELISA; whole IgG in the other assays; also called 45D6-3H7; PD1 45D6 3H7) VH: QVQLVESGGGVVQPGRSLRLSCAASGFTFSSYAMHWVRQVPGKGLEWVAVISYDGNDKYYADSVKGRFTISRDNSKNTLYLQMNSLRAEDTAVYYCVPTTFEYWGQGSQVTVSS VL: DIVMTQTPLSLPVTPGEPASISCRSSQSLLDSDDGNTYLDWYLQKPGQSPQLLIYTLSHRASGVPGRFSGSGSGTEFNLRISRVEAEDVGIYYCMQRVEFPFTFGQGTKLEIK :: 1.64

Briefly, EC50 measured for PD1-45D6(A/5B2) (antibody, V domains shown, scFv-phage in the screening ELISA; whole IgG in the other assays; also called 45D6-5B2; PD1 45D6 5B2) VH: QVQLVESGGGVVQPGRSLRLSCAASGFTFSFYAMHWVRQAPGKGLEWVAVISYDGNDKYYADSVKGRFTISRDNSKNTLYLQMNSLRAEDTAVYYCVPTTFEYWGQGTLVTVSS VL: DIVMTQTPLSPPVTPGEPASISCRSSQSLLDSDDGNTYLDWYLQKPGQSPQLLIYTLSHRASGVPDRFSGSGSGTDFTLEISRVEAEDVGVYYCMQRRDFPFTFGQGTKLDIK : 1.66

The origin of these recorded values is patent US20190248900A1.
